tested on: blood platelet aggregation; test: Blood platelet aggregation inhibition in vitro in rabbit PRP, collagen induced; assay type: cell-based, male, New Zealand strain house rabbit; settings: Oryctolagus cuniculus, collagen final concentration 5 μg/ml, 37° C., 3 minutes preincubation, 50% inhibition of maximum aggregation rate
Observed Property: IC50 (µM)
Numbers only here, please. The scale is µM.

Problem: Would you kindly share the measured IC50 for O=C(/C=C1/C(=O)N(c2ccc(Br)cc2)C1c1ccccc1)c1ccc([N+](=O)[O-])cc1 (stereo not shown) ?
Result: 5.1

Problem: Record: O=C(/C=C1/C(=O)N(c2ccccc2)C1c1ccccc1)c1ccc(Br)cc1 (stereo not shown)
Result: 26

Problem: Record: O=C(/C=C1/C(=O)N(c2ccccc2)C1c1ccccc1)c1ccc(Cl)cc1 (stereo not shown)
Result: 12

Problem: Record: Cc1ccccc1N1C(=O)/C(=C/C(=O)c2ccc([N+](=O)[O-])cc2)C1c1ccc(Br)cc1 (stereo not shown)
Result: 5.3
